Test system: MCF7
MEASUREMENT_DESCRIPTION: Increase in intracellular GSH level in human MCF7 cells expressing antioxidant response element at 10 uM after 6 hrs by HPLC analysis relative to control
Format: functional

- MOLECULE: "COc1cc(OC)c(C(=O)/C=C/c2c(F)cccc2F)c(OC)c1"
  ASSAYED_SYSTEM: "MCF7"
  UNIT_STRING: "%"
  Activity: 118
- MOLECULE: "COc1cc(O)c(C(=O)/C=C/c2c(F)cccc2F)c(OC)c1"
  ASSAYED_SYSTEM: "MCF7"
  UNIT_STRING: "%"
  Activity: 135
- MOLECULE: "COc1cccc(OC)c1C(=O)/C=C/c1cccc(F)c1"
  ASSAYED_SYSTEM: "MCF7"
  UNIT_STRING: "%"
  Activity: 82
- MOLECULE: "COc1ccc(C(=O)/C=C/c2c(Cl)cccc2Cl)c(O)c1"
  ASSAYED_SYSTEM: "MCF7"
  UNIT_STRING: "%"
  Activity: 107
- MOLECULE: "COc1cccc(OC)c1C(=O)/C=C/c1ccccc1F"
  ASSAYED_SYSTEM: "MCF7"
  UNIT_STRING: "%"
  Activity: 103
- MOLECULE: "COc1ccc(C(=O)/C=C/c2cccc(F)c2)c(OC)c1"
  ASSAYED_SYSTEM: "MCF7"
  UNIT_STRING: "%"
  Activity: 78
- MOLECULE: "COc1cccc(OC)c1/C=C/C(=O)c1ccccc1"
  ASSAYED_SYSTEM: "MCF7"
  UNIT_STRING: "%"
  Activity: 111
- MOLECULE: "COc1ccc(C(=O)/C=C/c2c(OC)cc(OC)cc2OC)c(O)c1"
  ASSAYED_SYSTEM: "MCF7"
  UNIT_STRING: "%"
  Activity: 91
- MOLECULE: "COc1cccc(O)c1C(=O)/C=C/c1c(Cl)cccc1Cl"
  ASSAYED_SYSTEM: "MCF7"
  UNIT_STRING: "%"
  Activity: 88
- MOLECULE: "COc1cccc(OC)c1/C=C/C(=O)c1c(Cl)cccc1Cl"
  ASSAYED_SYSTEM: "MCF7"
  UNIT_STRING: "%"
  Activity: 93
- MOLECULE: "COc1cccc(OC)c1C(=O)/C=C/c1ccc(F)cc1F"
  ASSAYED_SYSTEM: "MCF7"
  UNIT_STRING: "%"
  Activity: 104
- MOLECULE: "COc1cc(O)c(C(=O)/C=C/c2c(Cl)cccc2Cl)c(OC)c1"
  ASSAYED_SYSTEM: "MCF7"
  UNIT_STRING: "%"
  Activity: 119
- MOLECULE: "O=C(/C=C/c1c(Cl)cccc1Cl)c1ccccc1O"
  ASSAYED_SYSTEM: "MCF7"
  UNIT_STRING: "%"
  Activity: 108
- MOLECULE: "COc1cccc(OC)c1C(=O)/C=C/c1ccccc1[N+](=O)[O-]"
  ASSAYED_SYSTEM: "MCF7"
  UNIT_STRING: "%"
  Activity: 106
- MOLECULE: "COc1ccc(C(=O)/C=C/c2c(OC)cccc2OC)c(O)c1"
  ASSAYED_SYSTEM: "MCF7"
  UNIT_STRING: "%"
  Activity: 90
- MOLECULE: "COc1ccc(C(=O)/C=C/c2ccc(OC)cc2OC)c(O)c1"
  ASSAYED_SYSTEM: "MCF7"
  UNIT_STRING: "%"
  Activity: 114
- MOLECULE: "COc1cc(O)c(C(=O)/C=C/c2ccccc2)c(OC)c1 [FLAVOKAWAIN B]"
  ASSAYED_SYSTEM: "MCF7"
  UNIT_STRING: "%"
  Activity: 101
- MOLECULE: "COc1cc(OC)c(C(=O)/C=C/c2c(Cl)cc(Cl)cc2Cl)c(OC)c1"
  ASSAYED_SYSTEM: "MCF7"
  UNIT_STRING: "%"
  Activity: 119
- MOLECULE: "COc1ccc(C(=O)/C=C/c2cc(OC)ccc2OC)c(O)c1"
  ASSAYED_SYSTEM: "MCF7"
  UNIT_STRING: "%"
  Activity: 100
- MOLECULE: "O=C(/C=C/c1ccccc1)c1cc(O)ccc1O"
  ASSAYED_SYSTEM: "MCF7"
  UNIT_STRING: "%"
  Activity: 82
- MOLECULE: "COc1cc(O)c(C(=O)/C=C/c2ccccc2Cl)c(OC)c1"
  ASSAYED_SYSTEM: "MCF7"
  UNIT_STRING: "%"
  Activity: 107
- MOLECULE: "COc1cccc(OC)c1C(=O)/C=C/c1c(Cl)cccc1Cl"
  ASSAYED_SYSTEM: "MCF7"
  UNIT_STRING: "%"
  Activity: 122
- MOLECULE: "COc1cccc(OC)c1C(=O)/C=C/c1cccc(Cl)c1"
  ASSAYED_SYSTEM: "MCF7"
  UNIT_STRING: "%"
  Activity: 88
- MOLECULE: "COc1cc(OC)c(/C=C/C(=O)c2ccc(Cl)c(Cl)c2)c(OC)c1"
  ASSAYED_SYSTEM: "MCF7"
  UNIT_STRING: "%"
  Activity: 98
